Source of measurements: paper PMC10895799

Measured target: THIK-1 (mKCNK13) (Mus musculus, UniProt Q8R1P5)
Sequence (Q8R1P5 1-405): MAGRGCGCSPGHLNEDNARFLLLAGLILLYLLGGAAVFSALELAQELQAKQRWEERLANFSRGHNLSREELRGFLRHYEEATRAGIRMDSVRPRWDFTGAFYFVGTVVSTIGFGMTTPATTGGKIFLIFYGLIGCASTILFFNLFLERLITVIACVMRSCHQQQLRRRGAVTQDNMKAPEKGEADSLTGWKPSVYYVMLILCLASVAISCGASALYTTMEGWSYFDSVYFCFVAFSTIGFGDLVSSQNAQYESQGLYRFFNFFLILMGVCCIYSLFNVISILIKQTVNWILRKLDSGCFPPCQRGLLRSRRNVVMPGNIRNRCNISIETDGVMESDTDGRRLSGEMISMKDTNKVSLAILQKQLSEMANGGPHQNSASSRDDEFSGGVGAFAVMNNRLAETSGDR
Assay explanation: FLIPR thallium flux in HEK293 cells; patch clamp of WT and THIK-1 KO microglia
Test readout: pIC50
Field pIC50 (float): negative decimal logarithm of the concentration in molar.

Problem: Assign pIC50 to the following record: COc1ncc(Cl)cc1C(=O)N(C)Cc1cccc(F)c1
Solution: 7.21

----------
Measured target: THIK-1 (hKCNK13) (Homo sapiens)
Sequence (Q9HB14 whole entry): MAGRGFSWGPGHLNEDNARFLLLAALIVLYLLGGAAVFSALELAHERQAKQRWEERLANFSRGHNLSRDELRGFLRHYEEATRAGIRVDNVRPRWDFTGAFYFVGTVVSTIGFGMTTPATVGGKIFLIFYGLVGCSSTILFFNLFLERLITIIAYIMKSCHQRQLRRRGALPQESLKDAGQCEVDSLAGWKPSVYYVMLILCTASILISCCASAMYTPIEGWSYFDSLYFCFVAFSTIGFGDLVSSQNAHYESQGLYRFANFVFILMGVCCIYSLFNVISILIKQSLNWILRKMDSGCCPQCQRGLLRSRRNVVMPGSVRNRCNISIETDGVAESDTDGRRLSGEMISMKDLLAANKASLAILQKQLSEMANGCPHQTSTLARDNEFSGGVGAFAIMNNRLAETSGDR
Assay explanation: radioligand displacement on HEK-hKCNK13 membranes; IC50 from FLIPR thallium flux in HEK293; QPatch IC50 […]
Test readout: IC50 (nM)
Respond with the bare value in nM.

Problem: Consider the compound COc1ncc(Cl)cc1C(=O)N(C)Cc1cccc(F)c1 . State its measured IC50.
Solution: 71
